- ASSAYED TARGET: T1, CD123 (Homo sapiens (Human), UniProt P26951 19-305, limits assumed)
- T1 construct: also called CD123-Signal
- T1 sequence: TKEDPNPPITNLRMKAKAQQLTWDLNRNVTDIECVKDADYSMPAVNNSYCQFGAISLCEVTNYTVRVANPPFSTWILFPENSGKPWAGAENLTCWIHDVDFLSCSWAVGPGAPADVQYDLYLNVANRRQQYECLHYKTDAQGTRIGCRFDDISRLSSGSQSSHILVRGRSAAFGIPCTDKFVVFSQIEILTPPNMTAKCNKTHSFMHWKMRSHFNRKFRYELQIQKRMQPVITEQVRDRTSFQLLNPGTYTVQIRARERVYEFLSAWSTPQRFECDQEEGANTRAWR
- ASSAY INFO: ELISA, format not described
- Set-up: unit not given here
OUTCOME MEASURE: ELISA_avg

Some binders with recorded ELISA_avg:
D domain SEQ ID NO: 753 (designed binder) MGSWYEFWDRLEAIEERLWALGGSEAELAAFEKEIAAFESELQAYKGKGNPEVEYLRLEAADIRRILQAYRHN | 4.6
D domain SEQ ID NO: 730 (designed binder) MGSWVEFWHRLDAIKARLNALGGSEAELAAFEKEIAAFESELQAYKGKGNPEVEDLRWYAADFRLILQAYRHN | 3.5
D domain SEQ ID NO: 732 (designed binder) MGSWYEFYDRLSAIYARLQALGGSEAELAAFEKEIAAFESELQAYKGKGNPEVEDLRWYAADIRYMLQAYRHN | 5.3

Proceeding to the next binder to report its ELISA_avg.
In: Check the records and state ELISA_avg for D domain SEQ ID NO: 699 (designed binder) MGSWGEFMDRLEAIDYRLWALGGSEAELAWFESDIAEFEQELQMYKGKGNPEVEALWDEAMAIRDELFAYRHN
Out: 4.6
